System: PPARg:RXRa 30nM:10nM, anti-RXR (NR concentration 30 nM, RXRa partner concentration 10 nM)
Experiment: PBM binding z-score (relative to random genomic background probes); higher = stronger binding; sequences stand for … in GC…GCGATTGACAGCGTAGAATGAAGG
Measured PBM binding z-score of individual entries
measured.property: PBM binding z-score

{"sequence.input": "TAGCCTAGGTCATGCGGACCAGTATAGTGTCGGC", "target.desc": "PPARg:RXRa 30nM:10nM, anti-RXR (NR concentration 30 nM, RXRa partner concentration 10 nM)", "recorded.measurement": 0.202}
{"sequence.input": "TTACCAAGGTGAGCTGAAGTCGTTGATCCAACTC", "target.desc": "PPARg:RXRa 30nM:10nM, anti-RXR (NR concentration 30 nM, RXRa partner concentration 10 nM)", "recorded.measurement": -0.185}
{"sequence.input": "TCTGCTATGTCAGTTGGTCAGCTAACGAGCTGCC", "target.desc": "PPARg:RXRa 30nM:10nM, anti-RXR (NR concentration 30 nM, RXRa partner concentration 10 nM)", "recorded.measurement": 0.854}
{"sequence.input": "AATACAGGGTCACTAGGCCAGAGTTGGTACGAAT", "target.desc": "PPARg:RXRa 30nM:10nM, anti-RXR (NR concentration 30 nM, RXRa partner concentration 10 nM)", "recorded.measurement": 3.71}
{"sequence.input": "CGTTACGGGTCACTCCAGGTTATAGCATCGGAGT", "target.desc": "PPARg:RXRa 30nM:10nM, anti-RXR (NR concentration 30 nM, RXRa partner concentration 10 nM)", "recorded.measurement": 1.42}
{"sequence.input": "TCGAGTTGGTTAGGGGCATTCAGAATGGCGTCGA", "target.desc": "PPARg:RXRa 30nM:10nM, anti-RXR (NR concentration 30 nM, RXRa partner concentration 10 nM)", "recorded.measurement": 0.687}
